Reported log10(IC50) values, CTX-M-15 (Escherichia coli).
Endpoint: log10(IC50) (log10 of the value in nM)

> print(dat)
                                    compound     endpoint  number
 1  O=C(Nc1nncs1)c1ccn(C2=CC3CN(C2)C(=O)N3OS(=O)(=O)[O-])n1.[Na+] (centres unmarked) [Example 84]  log10(IC50)    0.00
 2  O=C(NOCCO)c1ccn(C2=CC3CN(C2)C(=O)N3OS(=O)(=O)[O-])n1.[Na+] (centres unmarked) [Example 47]  log10(IC50)    0.04
 3  O=C1N2CC(n3nccc3CCO)=CC(C2)N1OS(=O)(=O)[O-].[Na+] (centres unmarked) [Example 68]  log10(IC50)    0.85
 4  O=C1N2CC(n3cc(N4CCNCC4)cn3)=CC(C2)N1OS(=O)(=O)O (centres unmarked) [Example 42]  log10(IC50)   -0.33
 5  O=C(N[C@@H]1CCNC1)c1ccn(C2=CC3CN(C2)C(=O)N3OS(=O)(=O)O)n1 (some centres unmarked) [Example 83]  log10(IC50)   -0.19
 6  O=C(Nc1cc[nH]n1)c1ccn(C2=CC3CN(C2)C(=O)N3OS(=O)(=O)[O-])n1.[Na+] (centres unmarked) [Example 85]  log10(IC50)   -0.23
 7  NCCc1cnn(C2=CC3CN(C2)C(=O)N3OS(=O)(=O)O)c1 (centres unmarked) [Example 41]  log10(IC50)   -0.04
 8  O=C(Nc1nccs1)c1ccn(C2=CC3CN(C2)C(=O)N3OS(=O)(=O)[O-])n1.[Na+] (centres unmarked) [Example 25]  log10(IC50)   -0.37
 9  O=C(NCCO)c1ccn(C2=CC3CN(C2)C(=O)N3OS(=O)(=O)[O-])n1.[Na+] (centres unmarked) [Example 11]  log10(IC50)    0.15
10  O=C1N2CC(n3ccc(CO)n3)=CC(C2)N1OS(=O)(=O)O (centres unmarked) [Example 12]  log10(IC50)   -0.28
11  O=C1N2CC(n3ccsc3=O)=CC(C2)N1OS(=O)(=O)[O-].[Na+] (centres unmarked) [Example 1]  log10(IC50)   -0.26
12  CC(=O)c1ccn(C2=CC3CN(C2)C(=O)N3OS(=O)(=O)[O-])n1.[Na+] (centres unmarked) [Example 28, sulfate]  log10(IC50)   -0.30
13  NCCc1ccn(C2=CC3CN(C2)C(=O)N3OS(=O)(=O)O)n1 (centres unmarked) [Example 10]  log10(IC50)    0.04
14  O=C(N[C@H]1CCNC1)c1ccn(C2=CC3CN(C2)C(=O)N3OS(=O)(=O)O)n1 (some centres unmarked) [Example 82]  log10(IC50)   -0.05
15  CNCc1cn(C2=CC3CN(C2)C(=O)N3OS(=O)(=O)O)nn1 (centres unmarked) [Example 60]  log10(IC50)   -0.14
16  O=C1N2CC(n3ccnc3CO)=CC(C2)N1OS(=O)(=O)[O-].[Na+] (centres unmarked) [Example 70]  log10(IC50)    0.54
17  COc1cnn(C2=CC3CN(C2)C(=O)N3OS(=O)(=O)[O-])c1.[Na+] (centres unmarked) [Example 9]  log10(IC50)   -0.30

###

- System: K. pneumoniae 6299
- Protocol Text: MIC of compound alone, broth microdilution
- Format: cell-based
- Experimental Conditions: Klebsiella pneumoniae; strain 6299; compound alone; read-out: MIC compounds of the invention alone
Endpoint: MIC (µg/mL)

> print(dat)
                                   molecule  readout.qualifier  number
1  O=C1N2CC(n3ccc(F)n3)=CC(C2)N1OS(=O)(=O)[O-].[Na+] (centres unmarked)                  =       4
2  O=C1N2CC(n3ncnn3)=CC(C2)N1OS(=O)(=O)[O-].[Na+] (centres unmarked)                  =       4
3  O=C(Nc1cc[nH]n1)c1ccn(C2=CC3CN(C2)C(=O)N3OS(=O)(=O)[O-])n1.[Na+] (centres unmarked)                  >      32
4  NCCc1ccn(C2=CC3CN(C2)C(=O)N3OS(=O)(=O)O)n1 (centres unmarked)                  >      32
5  NC(=O)CNCc1cn(C2=CC3CN(C2)C(=O)N3OS(=O)(=O)O)nn1 (centres unmarked)                  =      32
